Entries below carry reported pKi on Adenosine receptor A2a (Homo sapiens, UniProt P29274).
Sequence (P29274 whole entry): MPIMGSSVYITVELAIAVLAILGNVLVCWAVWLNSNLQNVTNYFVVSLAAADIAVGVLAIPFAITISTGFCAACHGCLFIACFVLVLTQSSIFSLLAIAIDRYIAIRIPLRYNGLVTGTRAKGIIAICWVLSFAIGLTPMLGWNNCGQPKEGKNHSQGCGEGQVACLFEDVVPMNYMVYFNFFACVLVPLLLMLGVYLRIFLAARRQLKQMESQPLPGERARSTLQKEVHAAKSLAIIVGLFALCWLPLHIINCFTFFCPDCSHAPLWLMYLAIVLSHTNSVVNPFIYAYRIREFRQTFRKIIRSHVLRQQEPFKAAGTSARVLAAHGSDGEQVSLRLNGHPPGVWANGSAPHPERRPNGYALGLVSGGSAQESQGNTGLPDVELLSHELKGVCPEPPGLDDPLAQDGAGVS
Give bare numbers, as −log10 of the molar value.

In the examples that follow, each entry is paired with its recorded pKi.
Nc1nc(-c2cccc(O)c2)nc2sc(-c3ccccc3)nc12; 8.30
Nc1nc(-c2ccc(CO)cc2)nc2sc(-c3ccccc3)nc12; 7.09
Nc1nc(-c2ccco2)nc2sc(-c3ccccc3)nc12; 8.77
Nc1nc(-c2ccccc2)nc2sc(-c3ccco3)nc12; 8.52
O=C(Nc1nc(-c2ccccc2)nc2sc(-c3ccccc3)nc12)c1ccco1; 5.40
COc1ccc(-c2nc(N)c3nc(-c4ccccc4)sc3n2)cc1; 6.94

Now for another entry.
In: # pKi lookup, item N#Cc1cccc(-c2nc(N)c3nc(-c4ccco4)sc3n2)c1
Out: 8.11

====

Biological target: UniProt P29274
Experiment: Antagonist activity at human adenosine A2A receptor expressed in CHO cells assessed as inhibition of NECA-induced increase in cAMP accumulation preincubated for 10 mins followed by NECA addition by GloSensor cAMP assay
Would you mind telling me the reported pIC50 of each entry?
Give bare numbers, as −log10 of the molar value.

Nc1nc(-c2ccco2)nc2sc(-c3ccco3)nc12; 6.52

Kindly give each listed record's pIC50.
1. Nc1nc(-c2cccc(O)c2)nc2sc(-c3ccccc3)nc12
2. Nc1nc(-c2ccco2)nc2sc(-c3ccccc3)nc12
3. Nc1nc(-c2cccc(O)c2)nc2sc(-c3ccco3)nc12

Out:
[6.20, 6.79, 6.12]

====

Species: Homo sapiens
Test: Selectivity ratio of Ki for [3H]NECA from human adenosine A2A receptor expressed in CHO cells to Ki for displacement of [3H]HEMADO from human adenosine A3 receptor expressed in CHO cells
Format: cell-based
Hi, to clarify the labels: 1 covers Ratio Ki from 40 upward, 0 covers anything below 40.

Please review the following examples before continuing.
O=C(Nc1nc(-c2ccccc2)nc2sc(-c3ccco3)nc12)c1ccco1; 1
Cc1nc(N)c2nc(-c3ccccc3)sc2n1; 0

In: State whether the measured Ratio Ki reaches 40, counting equality as reaching it, for Nc1nc(-c2ccccc2)nc2sc(-c3ccccc3)nc12
Out: 0

In: Then COc1ccc(C(=O)Nc2nc(C)nc3sc(-c4ccccc4)nc23)cc1 ?
Out: 1

In: Then O=C(Nc1nc(-c2ccccc2)nc2sc(-c3ccccc3)nc12)c1ccccc1 ?
Out: 0

In: Then O=C(Nc1nc(-c2ccccc2)nc2sc(-c3ccccc3)nc12)c1ccco1 ?
Out: 1

In: Then Nc1nc(-c2ccccc2)nc2sc(-c3ccco3)nc12 ?
Out: 0

In: Then O=C(Nc1nc(-c2ccccc2)nc2sc(-c3ccco3)nc12)c1ccccc1 ?
Out: 0

In: Then Cc1nc(NC(=O)c2ccccc2)c2nc(-c3ccccc3)sc2n1 ?
Out: 0

====

Target: Adenosine receptors; A1 & A3 (Homo sapiens) (UniProt P30542+P0DMS8)
Sequence (P0DMS8 whole entry, looked up): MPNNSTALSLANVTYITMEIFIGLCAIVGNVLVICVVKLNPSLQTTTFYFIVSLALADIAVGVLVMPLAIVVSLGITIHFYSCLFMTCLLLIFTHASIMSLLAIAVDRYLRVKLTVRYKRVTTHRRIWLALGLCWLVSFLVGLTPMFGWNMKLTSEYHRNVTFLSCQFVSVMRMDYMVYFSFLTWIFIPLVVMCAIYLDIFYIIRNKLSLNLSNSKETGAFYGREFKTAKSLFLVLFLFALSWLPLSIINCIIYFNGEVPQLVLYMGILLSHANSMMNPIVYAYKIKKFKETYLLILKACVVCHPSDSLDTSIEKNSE
Sequence (P30542 whole entry, looked up): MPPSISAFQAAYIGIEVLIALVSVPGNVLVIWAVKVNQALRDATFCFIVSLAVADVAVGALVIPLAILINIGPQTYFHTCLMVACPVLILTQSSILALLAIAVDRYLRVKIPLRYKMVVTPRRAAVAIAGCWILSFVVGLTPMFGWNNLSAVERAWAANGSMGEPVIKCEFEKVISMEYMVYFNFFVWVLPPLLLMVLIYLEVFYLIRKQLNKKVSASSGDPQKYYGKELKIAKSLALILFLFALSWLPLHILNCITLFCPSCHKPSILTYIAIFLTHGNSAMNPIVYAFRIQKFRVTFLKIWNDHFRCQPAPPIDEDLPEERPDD
Test: Selectivity ratio of Ki for displacement of [3H]CCPA from human adenosine A1 receptor expressed in CHO cells to Ki for displacement of [3H]HEMADO from human adenosine A3 receptor expressed in CHO cells
Assay type: cell-based
Hi! Just check whether Ratio Ki is below 2. Below gives True, equal or above gives False.

Please review the following examples before continuing.
O=C(Nc1nc(-c2ccccc2)nc2sc(-c3ccccc3)nc12)c1ccccc1; True
COc1ccc(C(=O)Nc2nc(C)nc3sc(-c4ccccc4)nc23)cc1; False
O=C(Nc1nc(-c2ccccc2)nc2sc(-c3ccco3)nc12)c1ccco1; False

In: Input Nc1nc(-c2ccccc2)nc2sc(-c3ccco3)nc12 ; condition: Ratio Ki strictly below 2. Does it hold?
Out: False

In: Then O=C(Nc1nc(-c2ccccc2)nc2sc(-c3ccccc3)nc12)c1ccco1 ?
Out: False

In: Then Cc1nc(N)c2nc(-c3ccccc3)sc2n1 ?
Out: True

====

Target: UniProtKB P29274
readout_name: Ki (µM)
Answers are plain numbers, in µM.

Nc1nc(-c2cccc(O)c2)nc2sc(-c3ccco3)nc12; 0.00164
COc1cccc(-c2nc(N)c3nc(-c4ccccc4)sc3n2)c1; 0.11
Nc1nc(-c2cccc(CO)c2)nc2sc(-c3ccccc3)nc12; 0.053
Nc1nc(-c2ccccc2)nc2sc(-c3ccccc3)nc12; 0.019

Now for another entry.
In: # Ki lookup, item Nc1nc(-c2ccc(CO)cc2)nc2sc(-c3ccco3)nc12
Out: 0.0077

====

Biological target: Adenosine receptors; A1 & A3 (Homo sapiens) (UniProt P30542+P0DMS8)
Assay: Selectivity ratio of Ki for displacement of [3H]CCPA from human adenosine A1 receptor expressed in CHO cells to Ki for displacement of [3H]HEMADO from human adenosine A3 receptor expressed in CHO cells
Type: cell-based
Would you mind telling me the reported Ratio Ki of each entry?
Give bare numbers.

Cc1nc(NC(=O)c2ccccc2)c2nc(-c3ccccc3)sc2n1; 1.3

Now for another entry.
In: # Ratio Ki lookup, item Nc1nc(-c2ccccc2)nc2sc(-c3ccccc3)nc12
Out: 1.76

====

Organism: Homo sapiens
Assay: Selectivity ratio of Ki for displacement of [3H]HEMADO from human adenosine A3 receptor expressed in CHO cells to Ki for displacement of [3H]NECA from human adenosine A2A receptor expressed in CHO cells
Assay type: cell-based
readout_name: Ratio Ki
One number for each entry.

In the examples that follow, each entry is paired with its recorded Ratio Ki.
COc1cccc(-c2nc(N)c3nc(-c4ccccc4)sc3n2)c1; 0.3
Nc1nc(-c2ccccc2)nc2sc(-c3ccccc3)nc12; 4.4
Nc1nc(-c2cccc(O)c2)nc2sc(-c3ccco3)nc12; 9.6
Nc1nc(-c2ccco2)nc2sc(-c3ccccc3)nc12; 1.6
Nc1nc(-c2ccc(CO)cc2)nc2sc(-c3ccco3)nc12; 0.5

Kindly give each listed record's Ratio Ki.
1. Nc1nc(-c2cccc(O)c2)nc2sc(-c3ccccc3)nc12
2. Nc1nc(-c2ccccc2)nc2sc(-c3ccco3)nc12
3. Nc1nc(-c2cccc(CO)c2)nc2sc(-c3ccccc3)nc12
4. Nc1nc(-c2ccc(CO)cc2)nc2sc(-c3ccccc3)nc12

Out:
[38, 5, 0.07, 0.1]

====

Would you mind telling me the reported Ratio Ki of each entry?
Species: Homo sapiens
Assay: Selectivity ratio of Ki for displacement of [3H]CCPA from human adenosine A1 receptor expressed in CHO cells to Ki for displacement of [3H]NECA from human adenosine A2A receptor expressed in CHO cells
Format: cell-based
Answers are plain numbers.

Nc1nc(-c2ccco2)nc2sc(-c3ccccc3)nc12; 39.4
Nc1nc(-c2ccco2)nc2sc(-c3ccco3)nc12; 20.3
COc1cccc(-c2nc(N)c3nc(-c4ccccc4)sc3n2)c1; 1.6
Nc1nc(-c2cccc(CO)c2)nc2sc(-c3ccco3)nc12; 13
Nc1nc(-c2cccc(O)c2)nc2sc(-c3ccccc3)nc12; 11.7
Nc1nc(-c2ccc(CO)cc2)nc2sc(-c3ccco3)nc12; 10.1
COc1ccc(-c2nc(N)c3nc(-c4ccco4)sc3n2)cc1; 4.2
Nc1nc(-c2cccc(CO)c2)nc2sc(-c3ccccc3)nc12; 0.6

Kindly give each listed record's Ratio Ki.
1. Nc1nc(-c2ccccc2)nc2sc(-c3ccco3)nc12
2. N#Cc1cccc(-c2nc(N)c3nc(-c4ccco4)sc3n2)c1
3. Cc1ccc(-c2nc(N)c3nc(-c4ccccc4)sc3n2)o1
4. Nc1nc(-c2cccc(O)c2)nc2sc(-c3ccco3)nc12
5. Cc1ccc(-c2nc(N)c3nc(-c4ccco4)sc3n2)o1
6. COc1cccc(-c2nc(N)c3nc(-c4ccco4)sc3n2)c1
7. N#Cc1cccc(-c2nc(N)c3nc(-c4ccccc4)sc3n2)c1

Out:
1. 11
2. 13.3
3. 1.3
4. 31.1
5. 19.4
6. 32.8
7. 17.7

Kindly give each listed record's Ratio Ki.
1. Nc1nc(-c2ccc(CO)cc2)nc2sc(-c3ccccc3)nc12
2. COc1ccc(-c2nc(N)c3nc(-c4ccccc4)sc3n2)cc1
3. Nc1nc(-c2ccccc2)nc2sc(-c3ccccc3)nc12
4. Cc1nc(N)c2nc(-c3ccccc3)sc2n1

Out:
[1, 1.9, 7.8, 0.14]

====

Species: Homo sapiens
Test: Selectivity ratio of Ki for displacement of [3H]HEMADO from human adenosine A3 receptor expressed in CHO cells to Ki for displacement of [3H]NECA from human adenosine A2A receptor expressed in CHO cells
Type: cell-based
Hi, to clarify the labels: fulfilled covers Ratio Ki from 1 upward, not fulfilled covers anything below 1.

In: State whether the measured Ratio Ki reaches 1, counting equality as reaching it, for N#Cc1cccc(-c2nc(N)c3nc(-c4ccccc4)sc3n2)c1
Out: fulfilled

In: Then Nc1nc(-c2cccc(CO)c2)nc2sc(-c3ccco3)nc12 ?
Out: not fulfilled

In: Then Cc1ccc(-c2nc(N)c3nc(-c4ccco4)sc3n2)o1 ?
Out: fulfilled
